Test system: ACHN
Experiment: NCI tumour cell line growth inhibition, 48 h
Activity calls are given as the source filed them. Rule as the data show it: active = GI50 up to about 1.1 µM and inactive = higher.
Please reply with one of these outcomes: active, inactive

Take a look at these entries with their results.
compound	cat
Cc1cc(=O)oc2cc(OCc3nc4ccccc4c(=O)n3-c3ccccc3)ccc12	inactive
CS(=O)(=O)Nc1ccc(Nc2ccnc3ccc4[nH]ccc4c23)cc1	inactive
O=c1c(-c2ccccc2)c(SCCCN2CCN(c3cccc(Cl)c3)CC2)n(-c2ccccc2)c(=S)n1-c1ccccc1	inactive

Lab log entry: CCCCOC(=O)NC(c1ccccc1)C(O)C(=O)OC1C[C@@]2(O)C(OC(=O)c3ccccc3)C3[C@](C)(C(=O)[C@H](OC(C)=O)C(=C1C)C2(C)C)[C@@H](O)C[C@H]1OC[C@@]31OC(C)=O (stereo not given in full) — outcome as called in the assay?
active

Lab log entry: `COc1cc(-c2oc3c(OC)c(O)cc(O)c3c(=O)c2OC)ccc1O` — outcome as called in the assay?
inactive
